biological target: full-length beta-Catenin (Uniprot ID P35222) (Homo sapiens (Human)) (UniProt P35222); assay: fluorescence polarization competition; peptide titrated against full-length beta-catenin + 5FAM-TCF4(10-53)
Sequence (P35222 whole entry): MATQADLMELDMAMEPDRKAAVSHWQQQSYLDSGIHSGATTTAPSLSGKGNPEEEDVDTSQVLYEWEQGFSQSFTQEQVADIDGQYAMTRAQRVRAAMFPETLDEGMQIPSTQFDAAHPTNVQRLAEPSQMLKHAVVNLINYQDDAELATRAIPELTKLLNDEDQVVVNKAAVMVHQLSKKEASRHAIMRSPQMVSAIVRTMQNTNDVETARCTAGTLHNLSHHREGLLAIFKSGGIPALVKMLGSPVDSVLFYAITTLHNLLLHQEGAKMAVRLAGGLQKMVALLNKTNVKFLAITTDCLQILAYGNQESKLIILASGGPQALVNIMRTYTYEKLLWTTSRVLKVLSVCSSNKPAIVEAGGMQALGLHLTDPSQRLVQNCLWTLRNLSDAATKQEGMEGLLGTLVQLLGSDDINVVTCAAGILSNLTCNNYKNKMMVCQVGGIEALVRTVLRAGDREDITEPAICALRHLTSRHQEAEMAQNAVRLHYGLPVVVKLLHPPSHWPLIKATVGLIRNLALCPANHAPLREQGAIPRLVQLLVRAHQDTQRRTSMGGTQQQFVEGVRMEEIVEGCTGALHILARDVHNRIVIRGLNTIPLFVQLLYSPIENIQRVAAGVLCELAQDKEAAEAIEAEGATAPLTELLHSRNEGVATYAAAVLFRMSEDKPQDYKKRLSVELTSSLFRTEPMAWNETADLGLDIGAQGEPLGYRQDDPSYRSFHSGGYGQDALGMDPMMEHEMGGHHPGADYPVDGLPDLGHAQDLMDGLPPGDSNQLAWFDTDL
pIC50: −log10 of the molar value. Starred links: 1 amine or outer side, 2 acyl side, 3 side chain; linkers in the order of their positions; H or OH if unused. Positions of bridges follow the written chain, without caps; N, C: chain ends. Non-standard residues stand in square brackets, D forms with d. Primed or numbered codes have the meaning given here. TfeGA = (S)-2-amino-3-((carboxymethyl)(2,2,2-trifluoroethyl)amino)propanoic acid, O=C([C@H](CN(CC(=O)[*:3])CC(F)(F)F)N[*:1])[*:2]; B5(3) = 2,2-bis(4-pentenyl)glycine (stitching residue), C=CCCCC(CCCC=C)(N[*:1])C(=O)[*:2]; B5 = 2-amino-2-(pent-4-en-1-yl)hept-6-enoic acid, C=CCCCC(CCCC=C)(N[*:1])C(=O)[*:2]; Dip = N[C@H](C(=O)O)C(c1ccccc1)c1ccccc1; Bta = N[C@@H](Cc1csc2ccccc12)C(=O)O; αAllylPro = C=CC[C@@]1(C(=O)O)CCCN1; tBuAla = CC(C)(C)C[C@H](N)C(=O)O; 3Thi = N[C@@H](Cc1ccsc1)C(=O)O; Cha = N[C@@H](CC1CCCCC1)C(=O)O; S8 = C=CCCCCCC[C@](C)(N)C(=O)O
observable: pIC50

Solved cases below.
Ac-[αAllylPro]DL[B5]DEAAFN[S8][3Thi][Bta]-NH2 (staple 1-4, 4-11) [I-717] :: 7.41
Ac-[αAllylPro]D[tBuAla][B5]DEAAFN[S8][3Thi][Bta]-NH2 (staple 1-4, 4-11) [I-719] :: 7.42
Ac-[αAllylPro]DI[B5]DEAAFN[S8][3Thi][Bta]-NH2 (staple 1-4, 4-11) [I-720] :: 7.12
Ac-[αAllylPro]D[tBuAla][B5(3)]D[TfeGA]AAFN[S8][3Thi][Bta]H-NH2 (staple 1-4, 4-11) [I-705] :: 7.24
Ac-[αAllylPro]DI[B5(3)]DEAAFN[S8]F[Bta]-NH2 (staple 1-4, 4-11) [I-714] :: 6.88

I = Ac-[αAllylPro]DI[B5]DEAA[Dip]Q[S8]F[Bta]Q-NH2 (staple 1-4, 4-11) [I-725]
II = Ac-[αAllylPro]D[Cha][B5(3)]D[TfeGA]AAFN[S8][3Thi][Bta]H-NH2 (staple 1-4, 4-11) [I-709]
Choose between I and II : whose measured pIC50 value is numerically larger? Reply briefly: the label of your chosen item.
II
(II: 7.27, I: 5.30)
